- assay_method_text: in vivo
- condition_notes: male, CD1, mouse, plasma, po, 20 mg/kg
measured_attribute: Tmax (min)
Hi! Could you send only the number? It should be in min, unit omitted.

Inquiry: # lookup: Tmax of COc1ccc(S(=O)(=O)N2CCN(S(=O)(=O)C3CC3)C[C@@H]2C(=O)NO)cc1 [compound 23]
Reply text: 30

---

- assay_method_text: in vivo
- condition_notes: male, CD1, mouse, plasma, po, 20 mg/kg
measured_attribute: concentration at 4 h (ng/mL)
Hi! Could you send only the number? It should be in ng/mL, unit omitted.

Inquiry: # lookup: concentration at 4 h of `COc1ccc(S(=O)(=O)N2CCN(S(=O)(=O)C3CC3)C[C@@H]2C(=O)NO)cc1`
Reply text: 26.1
